Reported cell viability is given for each of the following molecules.
System: SEM cells
protocolDescription: cell viability relative to DMSO control; higher = less cytotoxic
cond: RPMI 5 mM glucose + 10% dialyzed FBS; 48 h; 0.19 µM
// return numeric value only (unit: %, not printed)

See these solved cases before continuing.
INSERT INTO measurements (moleculesmiles, observable, readoutvalue) VALUES
  ('CN(CC#C)C/C1=C/C2=CC=CC=C2OC3=CC=CC=C13', 'cell viability', 32.8),
  ('CN(c1ncccc1CNc1nc(Nc2ccc3c(c2)CC(=O)N3)ncc1C(F)(F)F)[S+](C)(=O)[O-]', 'cell viability', 119),
  ('CC(=O)O.Cc1c(-c2ccc(O)cc2)n(Cc2ccc(OCCN3CCCCCC3)cc2)c2ccc(O)cc12', 'cell viability', 102),
  ('COC1=NC(=NC(=C1N\C2=N\CCN2)Cl)C', 'cell viability', 104),
  ('C[C@](O)(COc1ccc(C#N)cc1)C(=O)Nc1ccc(C#N)c(C(F)(F)F)c1', 'cell viability', 107),
  ('CC(C)c1cnn2c(NCc3ccccc3)cc(N[C@@H](CO)[C@H](O)CO)nc12', 'cell viability', 121),
  ('C[C@@H](NC1=CC=CC=C1C(O)=O)C/2=C/C(=C\N3C(=O)/C=C(\N=C23)N4CCOCC4)C', 'cell viability', 77.8),
  ('Cl.Cl.Cl.O[C@@H](COc1cccc2ncccc12)CN1CCN([C@@H]2c3ccccc3[C@@H]3[C@H](c4ccccc42)C3(F)F)CC1', 'cell viability', 102);

Okay, next one:
GET /values?readout=cell viability&item= `CCCc1nc(C(C)(C)O)c(C(=O)O)n1Cc1ccc(-c2ccccc2-c2nn[nH]n2)cc1` 109

----------
# cell viability per record follows
System: P12-Ichikawa
protocolDescription: cell viability relative to DMSO control; higher = less cytotoxic
cond: RPMI 5 mM glucose + 10% FBS; 48 h; 0.0211 µM
API: value field is a number in %; no unit string.

Worked set:
INSERT INTO measurements (molecule, targetsystem, readoutvalue) VALUES
  ('COC1=C(N2CCNC(C)C2)C(=CC3=C1N(\C=C(C(O)=O)/C3=O)C4CC4)F (stereo not drawn)', 'P12-Ichikawa', 99.6),
  ('CC1=C(/C=C/C(C)=C/C=C/C(C)=C/C=C/C=C(C)/C=C/C=C(C)/C=C/C2=C(C)CCCC2(C)C)C(C)(C)CCC1', 'P12-Ichikawa', 111);

Reported cell viability for `OC[C@H]1O[C@@H](O[C@@H]2[C@@H](CO)O[C@](O)(CO)[C@H]2O)[C@H](O)[C@@H](O)[C@H]1O` : what is it? 98.2

Find the recorded cell viability belonging to `C/C=C(/C)C(=O)O[C@H]1C(C)=C2[C@H]([C@@H]1OC(=O)CCCCCCC)[C@@](C)(OC(C)=O)C[C@H](OC(=O)CCC)[C@@]1(O)[C@H]2OC(=O)[C@@]1(C)O` and report it. 125

Any idea what cell viability was measured for CCC(C)SSc1ncc[nH]1 (stereo not drawn) ? 90

Which cell viability is listed for C[C@]\12CC[C@H](O)CC1=C/CC3C2CC[C@@]\4(C)C3C\C=C4[N]5C=NC6=C5C=CC=C6 (stereo partly drawn) ? 112

What value of measured cell viability is listed for `Cc1ccc(NC(=O)c2ccc(CN3CCN(C)CC3)cc2)cc1Nc1nc(-c2cccnc2)cs1` ? 113

Data request, read-out cell viability, for `CCc1cncnc1N1CCN(Cc2nc3cc(C(F)(F)F)ccc3[nH]2)CC1` 97.2
